# target_or_test_system: IKZF1 (Homo sapiens (Human), UniProt Q13422+Q96SW2)
# Sequence (Q13422 whole entry): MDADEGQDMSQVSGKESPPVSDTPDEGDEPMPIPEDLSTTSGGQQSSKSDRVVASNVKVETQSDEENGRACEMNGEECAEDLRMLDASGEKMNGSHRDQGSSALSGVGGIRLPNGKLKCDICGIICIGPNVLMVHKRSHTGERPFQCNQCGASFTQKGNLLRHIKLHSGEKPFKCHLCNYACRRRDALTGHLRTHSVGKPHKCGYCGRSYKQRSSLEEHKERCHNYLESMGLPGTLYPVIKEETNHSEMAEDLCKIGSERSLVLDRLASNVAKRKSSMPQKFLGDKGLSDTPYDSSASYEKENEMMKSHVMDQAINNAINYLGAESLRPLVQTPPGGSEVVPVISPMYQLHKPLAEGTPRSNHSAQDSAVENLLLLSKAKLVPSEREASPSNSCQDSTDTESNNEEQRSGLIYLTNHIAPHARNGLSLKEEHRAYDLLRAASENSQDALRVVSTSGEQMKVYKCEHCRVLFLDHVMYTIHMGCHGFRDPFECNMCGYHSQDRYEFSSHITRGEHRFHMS
# Sequence (Q96SW2 whole entry): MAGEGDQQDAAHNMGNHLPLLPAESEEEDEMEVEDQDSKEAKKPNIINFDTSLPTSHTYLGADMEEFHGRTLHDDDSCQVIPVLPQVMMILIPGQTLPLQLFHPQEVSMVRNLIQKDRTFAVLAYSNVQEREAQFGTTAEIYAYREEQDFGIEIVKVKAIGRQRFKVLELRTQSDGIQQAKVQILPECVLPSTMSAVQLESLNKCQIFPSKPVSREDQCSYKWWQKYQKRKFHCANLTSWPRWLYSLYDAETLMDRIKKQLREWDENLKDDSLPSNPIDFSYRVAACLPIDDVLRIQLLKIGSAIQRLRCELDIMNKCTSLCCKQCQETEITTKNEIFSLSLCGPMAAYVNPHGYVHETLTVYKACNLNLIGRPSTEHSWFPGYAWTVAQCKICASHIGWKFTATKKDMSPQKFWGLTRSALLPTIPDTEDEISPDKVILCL
# Sequence (Q16531 2-1140 partner): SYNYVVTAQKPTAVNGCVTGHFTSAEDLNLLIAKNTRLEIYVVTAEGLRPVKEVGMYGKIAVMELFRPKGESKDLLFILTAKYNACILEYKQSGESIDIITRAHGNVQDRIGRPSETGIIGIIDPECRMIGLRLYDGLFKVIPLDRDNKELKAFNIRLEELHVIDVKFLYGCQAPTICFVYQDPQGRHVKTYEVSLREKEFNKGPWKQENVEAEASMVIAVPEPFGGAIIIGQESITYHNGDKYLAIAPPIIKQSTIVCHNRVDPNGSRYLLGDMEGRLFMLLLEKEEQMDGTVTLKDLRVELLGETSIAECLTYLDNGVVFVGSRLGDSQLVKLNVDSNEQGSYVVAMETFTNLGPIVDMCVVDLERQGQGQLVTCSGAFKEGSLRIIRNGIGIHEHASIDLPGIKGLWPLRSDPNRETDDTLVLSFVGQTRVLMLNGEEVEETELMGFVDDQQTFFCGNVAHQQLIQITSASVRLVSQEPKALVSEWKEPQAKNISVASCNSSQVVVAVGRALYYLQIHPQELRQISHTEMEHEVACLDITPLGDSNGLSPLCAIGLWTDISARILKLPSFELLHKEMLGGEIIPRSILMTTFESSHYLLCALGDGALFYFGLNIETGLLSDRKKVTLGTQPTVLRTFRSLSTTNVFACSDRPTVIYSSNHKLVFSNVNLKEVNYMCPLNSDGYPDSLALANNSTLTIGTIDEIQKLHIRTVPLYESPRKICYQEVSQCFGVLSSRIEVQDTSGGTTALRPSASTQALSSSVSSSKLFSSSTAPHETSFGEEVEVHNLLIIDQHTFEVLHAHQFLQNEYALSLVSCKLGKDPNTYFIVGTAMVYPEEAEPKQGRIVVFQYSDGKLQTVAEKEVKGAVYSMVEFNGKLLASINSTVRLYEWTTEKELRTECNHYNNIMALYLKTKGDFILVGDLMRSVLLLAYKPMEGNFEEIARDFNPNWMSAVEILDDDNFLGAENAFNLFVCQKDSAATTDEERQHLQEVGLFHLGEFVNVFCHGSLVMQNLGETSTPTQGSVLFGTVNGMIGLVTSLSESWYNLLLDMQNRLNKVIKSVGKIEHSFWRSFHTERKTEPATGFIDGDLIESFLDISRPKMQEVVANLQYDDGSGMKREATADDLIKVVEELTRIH
# assay_comment: In vitro IKZF1 HiBit Assay (HEK293T Flp-in-HiBiT-IKZF1 stable cell line)
# Format: cell-based
# condition_info: HEK293T Flp-in-HiBiT-IKZF1 stable cell line, 6 hrs incubation; read-out: IKZF1 HiBit DC50
measured_quantity: DC50

| compound | result_value |
| --- | --- |
| Nc1n[nH]c2c(CN3CC(O)C3)cc(-c3ccc4c(c3)CN(C3CCC(=O)NC3=O)C4=O)nc12 (stereo not drawn) | 0.001 to 0.01 µM |
| O=C1CCC(N2Cc3cc(-c4cc(CN5CCCC5)c5ccccc5n4)ccc3C2=O)C(=O)N1 (stereo not drawn) | > 10 µM |
| Nc1n[nH]c2c(CN3CC(F)C3)cc(-c3ccc4c(c3)CN(C3CCC(=O)NC3=O)C4=O)nc12 (stereo not drawn) | > 10 µM |

Sample Cn1ccc2c(C(=O)N3CCCC3)cc(-c3ccc4c(c3)CN(C3CCC(=O)NC3=O)C4=O)nc21 (stereo not drawn) ; DC50 observed: > 10 µM

The measured values listed here are drawn from patent US20250214991A1.
